Assay: Peptide hydrogel formation, vial-inverting method
Format: physicochemical
Conditions: 120 mM peptide (highest tested) in ultrapure water; pH 6.5-8.5 (1 N NaOH), ultrasonication, standing 48 h; vial-inverting method; precipitate, sol, suspension = no gel
Where a SMILES comes first, the peptide text is derived from it.
ASSAY_ENDPOINT: State

>>> data_value("O=C(O)[C@H](Cc1c[nH]c2ccccc12)NC(=O)[C@H](Cc1ccc(O)cc1)NC(=O)[C@H](Cc1c[nH]c2ccccc12)NC(=O)[C@@H]1CCCN1 [PWYW] (H-PWYW-OH)")
"gel"
>>> data_value("CSCC[C@H](NC(=O)[C@@H](N)Cc1ccccc1)C(=O)N[C@@H](Cc1ccc(O)cc1)C(=O)N[C@@H](CO)C(=O)O [FMYS] (H-FMYS-OH)")
"sol"
>>> data_value("CC(C)C[C@H](NC(=O)[C@@H](NC(=O)[C@H](CC(C)C)NC(=O)[C@@H](N)C(C)C)C(C)C)C(=O)O [VLVL] (H-VLVL-OH)")
"gel"
>>> data_value("NC(=O)C[C@H](NC(=O)[C@H](CC(N)=O)NC(=O)[C@H](CC(N)=O)NC(=O)[C@@H](N)CC(N)=O)C(=O)O [NNNN] (H-NNNN-OH)")
"sol"

Source: paper PMC10313671
